System: carrageenan-induced paw edema
measurement notes: Carrageenan-induced paw edema
Type: in vivo, rat
assay context: 30 mg/kg i.v.; 5 h post carrageenan
measured parameter: % Inhibition of Paw Edema (%)
Expressed in %, but write only the number.

Examples with answers:
INSERT INTO results (compound, value_unit, quantitative_result) VALUES
  ('Cc1c(-c2c3nc(c(-c4c(C)c(S(=O)(=O)[O-])c(C)c(S(=O)(=O)[O-])c4C)c4ccc([n-]4)c(-c4c(C)c(S(=O)(=O)[O-])c(C)c(S(=O)(=O)[O-])c4C)c4nc(c(-c5c(C)c(S(=O)(=O)[O-])c(C)c(S(=O)(=O)[O-])c5C)c5ccc2[n-]5)C=C4)C=C3)c(C)c(S(=O)(=O)[O-])c(C)c1S(=O)(=O)[O-].[Na+].[Na+].[Na+].[Na+].[Na+].[Na+].[Na+].[Na+].[Zn+2] [ZnTMPS, reference compound]', '%', 0),
  ('CC(=O)[O-].Cc1c(-c2c3nc(c(-c4c(C)c(S(=O)(=O)[O-])c(C)c(S(=O)(=O)[O-])c4C)c4ccc([n-]4)c(-c4c(C)c(S(=O)(=O)[O-])c(C)c(S(=O)(=O)[O-])c4C)c4nc(c(-c5c(C)c(S(=O)(=O)[O-])c(C)c(S(=O)(=O)[O-])c5C)c5ccc2[n-]5)C=C4)C=C3)c(C)c(S(=O)(=O)[O-])c(C)c1S(=O)(=O)[O-].[Fe+3].[Na+].[Na+].[Na+].[Na+].[Na+].[Na+].[Na+].[Na+] [Fe(III)TMPS]', '%', 80);

For the next question, use this compound.
response.value for Cc1c(-c2c3nc(c(-c4c(C)c(S(=O)(=O)O)c(C)c(S(=O)(=O)O)c4C)c4ccc([nH]4)c(-c4c(C)c(S(=O)(=O)O)c(C)c(S(=O)(=O)O)c4C)c4nc(c(-c5c(C)c(S(=O)(=O)O)c(C)c(S(=O)(=O)O)c5C)c5ccc2[nH]5)C=C4)C=C3)c(C)c(S(=O)(=O)O)c(C)c1S(=O)(=O)O [Example H2TMPS] (field: % Inhibition of Paw Edema) = 0

* * *

Tested on: carrageenan-induced paw edema
measurement notes: Carrageenan-induced paw edema
Assay type: in vivo, rat
assay context: 30 mg/kg i.v.; 1 h post carrageenan
measured parameter: % Inhibition of Paw Edema

INSERT INTO measurements (compound, measured_parameter, result) VALUES
  ('CC(=O)[O-].C[n+]1ccc(-c2c3nc(c(-c4cc[n+](C)cc4)c4ccc([n-]4)c(-c4cc[n+](C)cc4)c4nc(c(-c5cc[n+](C)cc5)c5ccc2[n-]5)C=C4)C=C3)cc1.Cc1ccc(S(=O)(=O)[O-])cc1.Cc1ccc(S(=O)(=O)[O-])cc1.Cc1ccc(S(=O)(=O)[O-])cc1.Cc1ccc(S(=O)(=O)[O-])cc1.[Fe+3] [Fe(III)TMPyP]', '% Inhibition of Paw Edema', '0%'),
  ('Cc1c(-c2c3nc(c(-c4c(C)c(S(=O)(=O)O)c(C)c(S(=O)(=O)O)c4C)c4ccc([nH]4)c(-c4c(C)c(S(=O)(=O)O)c(C)c(S(=O)(=O)O)c4C)c4nc(c(-c5c(C)c(S(=O)(=O)O)c(C)c(S(=O)(=O)O)c5C)c5ccc2[nH]5)C=C4)C=C3)c(C)c(S(=O)(=O)O)c(C)c1S(=O)(=O)O [Example H2TMPS]', '% Inhibition of Paw Edema', '0%');

For the next question, use this compound.
response.value for CC(=O)[O-].O=S(=O)(O)c1ccc(-c2c3nc(c(-c4ccc(S(=O)(=O)O)cc4)c4ccc([n-]4)c(-c4ccc(S(=O)(=O)O)cc4)c4nc(c(-c5ccc(S(=O)(=O)O)cc5)c5ccc2[n-]5)C=C4)C=C3)cc1.[Fe+3] [Fe(III)TPPS] (field: % Inhibition of Paw Edema) = 0%

* * *

Test system: carrageenan-induced paw edema
measurement notes: Carrageenan-induced paw edema
Assay type: in vivo, rat
assay context: 30 mg/kg i.v.; 5 h post carrageenan
Experimental: Carrageenan-induced paw edema. The effects of peroxynitrite catalysts in vivo were initially tested on the carrageenan-induced paw edema. […] Paw volume was measured by a plethysmometer immediately before the injection of carrageenan and then at hourly intervals from 1 to 6 h. Edema was expressed as the increase in paw volume (in ml) measured after carrageenan injection compared to the pre-injection value for individual animals.
measured parameter: % Inhibition of Paw Edema (%)
Expressed in %, but write only the number.

Examples with answers:
INSERT INTO measurements (molecule, measured_on, measured_parameter, value_unit, quantitative_result) VALUES
  ('CC(=O)[O-].Cc1c(-c2c3nc(c(-c4c(C)c(S(=O)(=O)[O-])c(C)c(S(=O)(=O)[O-])c4C)c4ccc([n-]4)c(-c4c(C)c(S(=O)(=O)[O-])c(C)c(S(=O)(=O)[O-])c4C)c4nc(c(-c5c(C)c(S(=O)(=O)[O-])c(C)c(S(=O)(=O)[O-])c5C)c5ccc2[n-]5)C=C4)C=C3)c(C)c(S(=O)(=O)[O-])c(C)c1S(=O)(=O)[O-].[Mn+3].[Na+].[Na+].[Na+].[Na+].[Na+].[Na+].[Na+].[Na+] [Mn(III)TMPS]', 'carrageenan-induced paw edema', '% Inhibition of Paw Edema', '%', 0),
  ('CC(=O)[O-].C[n+]1ccc(-c2c3nc(c(-c4cc[n+](C)cc4)c4ccc([n-]4)c(-c4cc[n+](C)cc4)c4nc(c(-c5cc[n+](C)cc5)c5ccc2[n-]5)C=C4)C=C3)cc1.Cc1ccc(S(=O)(=O)[O-])cc1.Cc1ccc(S(=O)(=O)[O-])cc1.Cc1ccc(S(=O)(=O)[O-])cc1.Cc1ccc(S(=O)(=O)[O-])cc1.[Fe+3] [Fe(III)TMPyP]', 'carrageenan-induced paw edema', '% Inhibition of Paw Edema', '%', 32);

For the next question, use this molecule.
response.value for CC(=O)[O-].O=S(=O)(O)c1ccc(-c2c3nc(c(-c4ccc(S(=O)(=O)O)cc4)c4ccc([n-]4)c(-c4ccc(S(=O)(=O)O)cc4)c4nc(c(-c5ccc(S(=O)(=O)O)cc5)c5ccc2[n-]5)C=C4)C=C3)cc1.[Fe+3] [Fe(III)TPPS] (field: % Inhibition of Paw Edema) = 34
